# Run Description: self-splicing fitness, log relative to wild type (ln ratio); higher = more splicing; Tetrahymena group I intron in knt gene, E. coli kanamycin selection, DiMSum; sequences stand for … in CUCUCU…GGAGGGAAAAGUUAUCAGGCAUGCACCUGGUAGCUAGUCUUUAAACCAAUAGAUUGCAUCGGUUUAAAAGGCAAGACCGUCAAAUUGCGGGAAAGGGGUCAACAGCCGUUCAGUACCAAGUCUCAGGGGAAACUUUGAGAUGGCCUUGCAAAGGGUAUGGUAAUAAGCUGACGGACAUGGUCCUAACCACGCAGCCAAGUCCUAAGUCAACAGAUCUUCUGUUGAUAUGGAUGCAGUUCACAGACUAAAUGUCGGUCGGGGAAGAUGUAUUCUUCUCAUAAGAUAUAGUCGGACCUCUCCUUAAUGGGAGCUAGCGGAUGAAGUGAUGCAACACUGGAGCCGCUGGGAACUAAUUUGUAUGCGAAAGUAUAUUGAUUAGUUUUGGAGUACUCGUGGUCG;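 further: selection with 25 µg/mL kanamycin versus none on LB agar overnight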
# Measurement Setup: 37 °C
Metric: self-splicing fitness (ln)
Give your answer as a number; write no unit.

# lookup: self-splicing fitness (ln) of GGAGAGCAAUAUUACGUCGA
-1.53

Please give the measured self-splicing fitness (ln) for this sequence: GUUUAGCAAUAUUACGAUAU
-0.528

If you can, please state the reported self-splicing fitness (ln) value of ACCAAGCAAUAUUACGAGUG .
-1.14

Field request: self-splicing fitness (ln) | item: UCCUAGCAAUAUUACGGCGA
0.153

Look at this sequence and give its reported self-splicing fitness (ln). GGCGAGCAAUAUUACGCAGU
-0.76

Tell me the measured self-splicing fitness (ln) of GAGCAGCAAUAUUACGAAAU , please.
-1.84

====

Please provide measured self-splicing fitness (ln) for the entries that follow.
# Run Description: self-splicing fitness, log relative to wild type (ln ratio); higher = more splicing; Tetrahymena group I intron in knt gene, E. coli kanamycin selection, DiMSum; sequences stand for … in CUCUCU…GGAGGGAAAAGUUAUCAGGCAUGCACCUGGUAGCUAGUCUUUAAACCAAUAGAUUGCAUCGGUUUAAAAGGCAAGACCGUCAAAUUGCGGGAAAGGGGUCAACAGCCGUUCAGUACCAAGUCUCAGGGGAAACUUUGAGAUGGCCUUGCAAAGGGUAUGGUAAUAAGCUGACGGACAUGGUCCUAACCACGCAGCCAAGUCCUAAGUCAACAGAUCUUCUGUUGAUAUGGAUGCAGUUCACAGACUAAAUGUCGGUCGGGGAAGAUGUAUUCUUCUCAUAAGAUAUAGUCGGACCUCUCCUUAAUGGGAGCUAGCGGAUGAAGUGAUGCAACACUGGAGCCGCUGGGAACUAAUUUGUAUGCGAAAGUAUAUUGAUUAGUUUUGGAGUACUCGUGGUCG
# Measurement Setup: 37 °C
Just the number, please, no unit attached.

Need self-splicing fitness (ln) of CCCGAGCAAUAUUACGAACA , thanks.
-2.51

self-splicing fitness (ln) lookup needed for UUUCAGCAAUAUUACGCAAG , thanks.
-0.106

Query (sequence): GCAAAGCAAUAUUACGGUUU ; field requested: self-splicing fitness (ln)
-0.4

Query (sequence): GCAUAGCAAUAUUACGCACG ; field requested: self-splicing fitness (ln)
-2.05

====

# Run Description: self-splicing fitness, log relative to wild type (ln ratio); higher = more splicing; Tetrahymena group I intron in knt gene, E. coli kanamycin selection, DiMSum; sequences stand for … in CUCUCU…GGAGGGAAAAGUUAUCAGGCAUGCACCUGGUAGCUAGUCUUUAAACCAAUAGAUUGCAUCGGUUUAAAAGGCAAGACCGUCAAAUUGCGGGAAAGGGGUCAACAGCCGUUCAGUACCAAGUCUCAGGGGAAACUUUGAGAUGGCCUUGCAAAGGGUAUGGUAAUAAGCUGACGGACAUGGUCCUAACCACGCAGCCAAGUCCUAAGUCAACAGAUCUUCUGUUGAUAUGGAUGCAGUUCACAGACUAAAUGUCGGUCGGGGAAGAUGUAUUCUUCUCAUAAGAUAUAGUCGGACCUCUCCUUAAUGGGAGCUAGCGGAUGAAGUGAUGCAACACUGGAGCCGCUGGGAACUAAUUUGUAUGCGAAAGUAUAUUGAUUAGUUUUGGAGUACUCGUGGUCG
# Measurement Setup: 30 °C
Returns one of TRUE or FALSE; TRUE when self-splicing fitness (ln) is >= -2.

API: above_or_equal(metric=self-splicing fitness (ln), cutoff=-2) for item CUGAAGCAAUAUUACGUAAU
FALSE

Hello, I need to know if ACCUAGCAAUAUUACGGAUA has measured self-splicing fitness (ln) not below -2. Thanks!
TRUE

Could you tell me if the measured self-splicing fitness (ln) of GGACAGCAAUAUUACGUAAA reaches -2 or more?
TRUE

For this sequence, is measured self-splicing fitness (ln) -2 or higher? UGCAAGCAAUAUUACGGGGG
FALSE

Please indicate if the recorded self-splicing fitness (ln) for UUUAAGCAAUAUUACGCGCC meets or exceeds -2.
TRUE

Check this sequence for self-splicing fitness (ln) at or above -2: CGCAAGCAAUAUUACGUUUC
FALSE

State whether the measured self-splicing fitness (ln) reaches -2, counting equality as reaching it, for GUUCAGCAAUAUUACGUCCU
TRUE

Does self-splicing fitness (ln) meet or surpass -2 for GACGAGCAAUAUUACGAGUC ?
FALSE

Check this sequence for self-splicing fitness (ln) at or above -2: CUCCAGCAAUAUUACGUAAA
FALSE

hey, is self-splicing fitness (ln) for this one >= -2? CGUUAGCAAUAUUACGAUAG
TRUE

Item CAGGAGCAAUAUUACGUUCU with self-splicing fitness (ln) of -2 or above?
FALSE

For this sequence, is measured self-splicing fitness (ln) -2 or higher? CUUUAGCAAUAUUACGUACG
TRUE

Can GGUCAGCAAUAUUACGAAGU be said to have self-splicing fitness (ln) at or above -2?
TRUE

Determine whether this sequence has self-splicing fitness (ln) no lower than -2: GGCAAGCAAUAUUACGCGAC
FALSE

Test whether the sequence AGUAAGCAAUAUUACGCACU records self-splicing fitness (ln) of -2 or higher.
FALSE

Is the recorded value of self-splicing fitness (ln) equal to or greater than -2 for this sequence? UCGUAGCAAUAUUACGCUAU
FALSE

Does the reported self-splicing fitness (ln) for CCGCAGCAAUAUUACGCUGU fall at or above the -2 mark?
FALSE

Has UGCCAGCAAUAUUACGUGAA a recorded self-splicing fitness (ln) greater than or equal to -2?
TRUE

Kindly determine if self-splicing fitness (ln) recorded for GCUGAGCAAUAUUACGUGUC is above or exactly -2.
FALSE

Does the sequence GGCCAGCAAUAUUACGGUGU have recorded self-splicing fitness (ln) that is -2 or more?
TRUE

Please indicate if the recorded self-splicing fitness (ln) for UGCAAGCAAUAUUACGACCA meets or exceeds -2.
TRUE

Does self-splicing fitness (ln) meet or surpass -2 for GGUUAGCAAUAUUACGGGUG ?
TRUE

Determine whether this sequence has self-splicing fitness (ln) no lower than -2: UCAUAGCAAUAUUACGAAGU
FALSE

# bool: self-splicing fitness (ln) of CAAGAGCAAUAUUACGGAGA >= -2
FALSE

self-splicing fitness (ln) >= -2 for AGCAAGCAAUAUUACGUUUA ?
FALSE

Does the sequence ACGUAGCAAUAUUACGCGAU have recorded self-splicing fitness (ln) that is -2 or more?
FALSE

Please check the record CCUAAGCAAUAUUACGAUUU and state if its self-splicing fitness (ln) is at or above -2.
FALSE

Given UUGUAGCAAUAUUACGCGAA , state whether its self-splicing fitness (ln) is at least -2.
TRUE

In plain terms: is recorded self-splicing fitness (ln) at least -2 for CAUUAGCAAUAUUACGUGUU ?
FALSE

Reported self-splicing fitness (ln) at or above -2? GCCCAGCAAUAUUACGAGGC
FALSE

Say whether UCGAAGCAAUAUUACGUGCU shows self-splicing fitness (ln) of -2 or more.
FALSE

Would you say CUUUAGCAAUAUUACGCAAG shows self-splicing fitness (ln) at minimum -2?
FALSE

Hi, just wondering whether GUUAAGCAAUAUUACGCCCG shows self-splicing fitness (ln) of -2 or higher.
TRUE

// inclusive: self-splicing fitness (ln) at least -2? input: AUGUAGCAAUAUUACGGGCU
FALSE

Record UCGGAGCAAUAUUACGCGUA ; criterion: self-splicing fitness (ln) no lower than -2. Met?
TRUE

Hello, I need to know if GCUUAGCAAUAUUACGUAGA has measured self-splicing fitness (ln) not below -2. Thanks!
TRUE

Determine whether measured self-splicing fitness (ln) meets or exceeds -2 for CCAAAGCAAUAUUACGCUAU
FALSE

Please indicate if the recorded self-splicing fitness (ln) for UAACAGCAAUAUUACGGGCU meets or exceeds -2.
FALSE

Test whether the sequence AUGUAGCAAUAUUACGCUGG records self-splicing fitness (ln) of -2 or higher.
FALSE

Determine whether this sequence has self-splicing fitness (ln) no lower than -2: CAACAGCAAUAUUACGCCUU
FALSE

Decide: is the reported value of self-splicing fitness (ln) for GACAAGCAAUAUUACGCGAA equal to or greater than -2?
FALSE

Determine whether measured self-splicing fitness (ln) meets or exceeds -2 for UCGAAGCAAUAUUACGUUGU
FALSE

Confirm if self-splicing fitness (ln) reported for the sequence ACAGAGCAAUAUUACGCCUA is -2 or above.
TRUE

Does the sequence CGGUAGCAAUAUUACGACCC have recorded self-splicing fitness (ln) that is -2 or more?
TRUE

State whether the measured self-splicing fitness (ln) reaches -2, counting equality as reaching it, for ACUGAGCAAUAUUACGUAGU
FALSE

Hi team, for AAUUAGCAAUAUUACGUCCC , is the recorded self-splicing fitness (ln) at or above -2?
TRUE

Would you say GCUUAGCAAUAUUACGAAGC shows self-splicing fitness (ln) at minimum -2?
FALSE

Test whether the sequence UACUAGCAAUAUUACGCUUA records self-splicing fitness (ln) of -2 or higher.
TRUE

Is self-splicing fitness (ln) for AAUUAGCAAUAUUACGGAGC at or above -2?
FALSE

Form field: self-splicing fitness (ln) at least -2? Entry: AUGAAGCAAUAUUACGGAUA
TRUE

Decide: self-splicing fitness (ln) of UCACAGCAAUAUUACGCGGC >= -2?
FALSE

Determine whether measured self-splicing fitness (ln) meets or exceeds -2 for CCACAGCAAUAUUACGAGAG
FALSE

Given UUCGAGCAAUAUUACGAUAA , state whether its self-splicing fitness (ln) is at least -2.
TRUE

Does UUUUAGCAAUAUUACGCUGU have a reported self-splicing fitness (ln) of at least -2?
FALSE

Answer whether self-splicing fitness (ln) of AAAGAGCAAUAUUACGUAGA is greater than or equal to -2.
FALSE

Given ACUCAGCAAUAUUACGAGAU , state whether its self-splicing fitness (ln) is at least -2.
FALSE

Reported self-splicing fitness (ln) reaches at least -2 for GCCGAGCAAUAUUACGAAGC ?
FALSE

Could you verify whether the entry CUCAAGCAAUAUUACGGGCC shows self-splicing fitness (ln) of no less than -2?
FALSE

Hello, I need to know if UAAGAGCAAUAUUACGCAGA has measured self-splicing fitness (ln) not below -2. Thanks!
FALSE

Does the reported self-splicing fitness (ln) for UCUAAGCAAUAUUACGAAGA fall at or above the -2 mark?
TRUE

Item GCGAAGCAAUAUUACGUAGA with self-splicing fitness (ln) of -2 or above?
FALSE
